# method-description: Clinical study BLU-285-0107: single 100 mg oral dose, severe hepatic impairment vs matched control subjects, plasma PK
# stated-conditions: human, plasma, po, 100 mg, AUCu0-24 GeoMean, Severe HI; unbound plasma avapritinib; single oral 100 mg

>  <molecular-string>
Cn1cc(-c2cc3c(N4CCN(c5ncc([C@@](C)(N)c6ccc(F)cc6)cn5)CC4)ncnn3c2)cn1

>  <AUC (ng·h/mL)>
18.3

$$$$

----------
# method-description: Clinical study BLU-285-0107: single 100 mg oral dose, severe hepatic impairment vs matched control subjects, plasma PK
# stated-conditions: human, plasma, po, 100 mg, Cmax GeoMean, Matched Control; total plasma avapritinib; single oral 100 mg
property: Cmax (ng/mL)

>  <molecular-string>
Cn1cc(-c2cc3c(N4CCN(c5ncc([C@@](C)(N)c6ccc(F)cc6)cn5)CC4)ncnn3c2)cn1

>  <property>
Cmax

>  <numeric-readout>
121

$$$$

----------
# method-description: Clinical study BLU-285-0107: single 100 mg oral dose, severe hepatic impairment vs matched control subjects, plasma PK
# stated-conditions: human, plasma, po, 100 mg, AUCu0-∞ GeoMean, Matched Control; unbound plasma avapritinib; single oral 100 mg

>  <molecule>
Cn1cc(-c2cc3c(N4CCN(c5ncc([C@@](C)(N)c6ccc(F)cc6)cn5)CC4)ncnn3c2)cn1 [Avapritinib]

>  <AUC [ng·h/mL]>
65.2

$$$$

----------
# method-description: Clinical study BLU-285-0107: single 100 mg oral dose, severe hepatic impairment vs matched control subjects, plasma PK
# stated-conditions: human, plasma, po, 100 mg, AUC0-24 GeoMean, Matched Control; total plasma avapritinib; single oral 100 mg

>  <molecular-string>
Cn1cc(-c2cc3c(N4CCN(c5ncc([C@@](C)(N)c6ccc(F)cc6)cn5)CC4)ncnn3c2)cn1

>  <AUC(0-t) [ng·h/mL]>
1610

$$$$

----------
# method-description: Clinical study BLU-285-0107: single 100 mg oral dose, severe hepatic impairment vs matched control subjects, plasma PK
# stated-conditions: human, plasma, po, 100 mg, t1/2 arithmetic mean, Severe HI; total plasma avapritinib; single oral 100 mg

>  <molecular-string>
Cn1cc(-c2cc3c(N4CCN(c5ncc([C@@](C)(N)c6ccc(F)cc6)cn5)CC4)ncnn3c2)cn1

>  <half-life, days>
4.03

$$$$

----------
# method-description: Clinical study BLU-285-0107: single 100 mg oral dose, severe hepatic impairment vs matched control subjects, plasma PK
# stated-conditions: human, plasma, po, 100 mg, AUCu0-240 GeoMean, Matched Control; unbound plasma avapritinib; single oral 100 mg

>  <molecular-string>
Cn1cc(-c2cc3c(N4CCN(c5ncc([C@@](C)(N)c6ccc(F)cc6)cn5)CC4)ncnn3c2)cn1

>  <AUC>
59.8 ng·h/mL

$$$$

----------
# method-description: Clinical study BLU-285-0107: single 100 mg oral dose, severe hepatic impairment vs matched control subjects, plasma PK;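 note: severe hepatic impairment meant chronic stable cirrhosis with a Child-Pugh score of 10–15, and each such subject was paired one-to-one with a control of similar age, BMI and sex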
# stated-conditions: human, plasma, po, 100 mg, Tmax median, Matched Control; total plasma avapritinib; single oral 100 mg

>  <molecular-string>
Cn1cc(-c2cc3c(N4CCN(c5ncc([C@@](C)(N)c6ccc(F)cc6)cn5)CC4)ncnn3c2)cn1

>  <Tmax, h>
2.25

$$$$
